# experimentalProtocol: qHTS assay to identify small molecule agonists of the estrogen receptor alpha (ER-alpha) signaling pathway in the presence of an antagonist - cell viability counter screen (AID 1259386);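 further: cells exposed to compounds for 22 h at 37 °C before the viability read; nearly all actives have a fitted effect of over 30% in size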
# reportedConditions: VM7Luc4E2 viability, CellTiter-Fluor fluorescence, 22 h; series mostly up to 92.4 µM
# Source text: National Center for Advancing Translational Sciences [NCATS] NIH Chemical Genomics Center [NCGC] U.S. Environmental Protection Agency [EPA] National Institutes of Environmental Health Sciences [NIEHS] National Toxicology Program [NTP] U.S. Food and Drug Administration [FDA] Estrogen receptor (ER), a member of nuclear hormone receptor plays an important role in development, metabolic homeostasis and reproduction. […]
Inconclusive results are not listed. Activity calls are given as the source filed them. The call rests on the fitted dose curve; in most records, active means well fitted cell-killing curve with a large enough effect in the repeat runs; inconclusive means weak or mixed curves, or effect the other way; inactive means no such curve, though single readings can be large or run the other way.
The categories you may choose from are active, inactive

Worked examples, 6 molecules total:
molecule	cat
CCCCCCCCCCCCCCCS(=O)(=O)Oc1ccccc1	inactive
O=C1C=CC(=O)N1	active
O=C1CCCCCN1SSN1CCCCCC1=O	inactive
O=c1[nH]cnc2nc[nH]c12	inactive
O=C1CCCc2c1cc1ccc3cccc4ccc2c1c34	inactive
Cc1nc(-c2ccc3c(c2)CCN(CCC2CCC(NC(=O)/C=C/c4ccc(F)cc4)CC2)CC3)no1 (configuration not stated)	inactive

For this molecule, state the assay outcome: CC(=O)SC[C@@H](Cc1ccccc1)C(=O)NCC(=O)OCc1ccccc1
inactive

---

# testSystem: Cytochrome P450 2C9 (Homo sapiens)
# experimentalProtocol: Cytochrome P450 Family 2 Subfamily C Member 9 (CYP2C9) small molecule antagonists: luciferase reporter qHTS assay (AID 1671198); further: nearly all actives have a fitted effect of over 50% in size
# reportedConditions: P450-Glo CYP2C9 enzyme assay, luciferin luminescence; series mostly up to 53 µM
Records with an inconclusive call do not appear. Activity calls are given as the source filed them. Calls follow the shape of the dose curve; as a rule, active = well fitted inhibition curve with a large enough effect in the repeat runs; inconclusive = weak or mixed curves; inactive = no such curve, though single readings can be large or run the other way.
// classify into TRUE = active, FALSE = inactive

# count of solved cases: 5
smilesData	cat
CC(C)(C)C(=O)OCOC(=O)[C@@H]1N2C(=O)[C@@H](NC(=O)[C@H](N)c3ccccc3)[C@H]2SC1(C)C	TRUE
CCC(CN)=C(c1ccccc1)c1ccccc1	TRUE
NNC(=O)c1cccc(C(=O)NN)c1	TRUE
CCCCN1C(=O)[C@@H]([C@H](O)C2CCCCC2)NC(=O)C12CCN(Cc1ccc(Oc3ccc(C(=O)O)cc3)cc1)CC2	FALSE
O=C1Cc2cc(CCN3CCN(c4nsc5ccccc45)CC3)c(Cl)cc2N1	TRUE

What outcome does the record of this test show for CC(C)C(C)(C)C(C)(C)C(C)(C)S ?
TRUE

Please let me know the test result on file for C[C@@H](NCCCc1cccc(C(F)(F)F)c1)c1cccc2ccccc12 .
FALSE

Short answer needed: outcome of this test for CC/C(=C(\c1ccc(O)cc1)c1ccc(OCCN(C)C)cc1)c1ccccc1 ?
TRUE

Name the outcome recorded for c1ccc(CSCc2ccccc2)cc1 in the assay.
TRUE

Could you please tell me the result logged for O=C(NOCC1CC1)c1ccc(F)c(F)c1Nc1ccc(I)cc1Cl in this assay?
TRUE

How was Nc1ccc2c3c(cccc13)-c1ccccc1-2 classified in this test?
TRUE

---

# experimentalProtocol: qHTS assay to identify small molecule agonists of the peroxisome proliferator-activated receptor delta (PPARd) signaling pathway - cell viability counter screen (AID 743211); further: nearly all actives have a fitted effect of over 55% in size; further: potency means the concentration at half of the fitted maximal effect
# reportedConditions: PPARd-bla HEK293H viability, CellTiter-Glo luminescence, 17 h; series mostly up to 62.6 µM
Results filed as inconclusive are left out. Calls of active or inactive are those of the source. The call rests on the fitted dose curve; in most records, active means well fitted cell-killing curve with a large enough effect in the repeat runs; inconclusive means weak or mixed curves; inactive means no such curve, though single readings can be large or run the other way.
parameter: Potency

Reference set (5 entries):
smilesData	parameter	endpointValue
O=C(O)c1ccc(Cl)c(Cl)c1	Potency	inactive
CCC1=C[C@@H]2CN(C1)Cc1c([nH]c3ccccc13)[C@@](C(=O)OC)(c1cc3c(cc1OC)N(C)[C@H]1[C@@](O)(C(=O)OC)[C@H](OC(C)=O)[C@]4(CC)C=CCN5CC[C@]31[C@@H]54)C2	Potency	29.8 µM (active)
O=C(NO)C1(NS(=O)(=O)c2ccc(Oc3ccc(F)cc3)cc2)CCOCC1	Potency	inactive
C=C(C)C(=O)OCC[N+](C)(C)C	Potency	inactive
Cc1cc2c(cc1C(F)(F)F)N(C(=O)Nc1ccc(Oc3cccnc3C)nc1)CC2	Potency	44.3 µM (active)

Report Potency for On1ccccc1=S please.
0.385 µM (active)

Which Potency value belongs to CCCCCCCCCCCCCCCS(=O)(=O)Oc1ccccc1 ?
inactive

I am curious: what Potency value has been reported for Cc1cc(CCN2CCN(c3nsc4ccccc34)CC2)cc2c1NC(=O)CC2(C)C ?
21.9 µM (active)

Any idea what its Potency is? The compound is OCCN1CCN(CC/C=C2/c3ccccc3Sc3ccc(C(F)(F)F)cc32)CC1
26.6 µM (active)

---

# experimentalProtocol: qHTS assay for small molecule disruptors of the mitochondrial membrane potential (AID 720635)
# reportedConditions: HepG2 mitochondrial membrane potential, Mito-MPS dye ratio; series mostly up to 83.2 µM
Records with an inconclusive call do not appear. Activity calls are given as the source filed them. The call rests on the fitted dose curve; in most records, active means well fitted inhibition curve with a large enough effect in the signal ratio in the repeat runs; inconclusive means weak or mixed curves, or effect the other way; inactive means flat fitted curve, though single readings scatter; the % refers to the signal ratio.
Please reply with one of these outcomes: true (1) (active), false (0) (inactive)

smilesData	cat
Cc1onc(-c2c(Cl)cccc2Cl)c1C(=O)N[C@@H]1C(=O)N2[C@@H]1SC(C)(C)[C@@H]2C(=O)O	false (0)
Nc1ccccc1O	true (1)
On1ccccc1=S	true (1)

Now look at this one.
What classification did O=C1c2c(O)ccc(Nc3ccc(CCO)cc3)c2C(=O)c2c([N+](=O)[O-])ccc(O)c21 end up with in this test?
true (1)

---

# experimentalProtocol: qHTS assay to identify small molecule antagonists of the androgen receptor (AR) signaling pathway using the MDA cell line - cell viability counter screen (AID 743041; further: nearly all actives have a fitted effect of over 45% in size)
# reportedConditions: MDA-kb2 viability, CellTiter-Fluor, 16 h, cells co-treated with R1881 androgen agonist; series mostly up to 70.3 µM
# Excerpt: National Center for Advancing Translational Sciences [NCATS] NIH Chemical Genomics Center [NCGC] U.S. Environmental Protection Agency [EPA] National Institutes of Environmental Health Sciences [NIEHS] National Toxicology Program [NTP] U.S. Food and Drug Administration [FDA] Androgen receptor (AR), a nuclear hormone receptor, plays a critical role in AR-dependent prostate cancer and other androgen related diseases. […]
Records with an inconclusive call do not appear. Activity calls are given as the source filed them. Calls follow the shape of the dose curve; as a rule, active = well fitted cell-killing curve with a large enough effect in the repeat runs; inconclusive = weak or mixed curves, or effect the other way; inactive = flat fitted curve, though single readings scatter.
Outcome (select one): active, inactive

Reference set, count: 2
compound	cat
CNc1ccc(O)cc1	active
N#CSc1ccc(N)c([N+](=O)[O-])c1	active

How was O=S1(=O)CC(Cl)(Cl)C(Cl)(Cl)C1 classified in this test?
active

Which result was noted for this compound in the test: Cc1cc(O)c2ccccc2c1O
inactive

Check the results log: what was the call for CC(=O)OCC(C)OC(C)=O (stereo not given) ?
inactive

---

# experimentalProtocol: Human pregnane X receptor (PXR) small molecule agonists, qHTS cell viability counter screen (AID 1346977); further: nearly all actives have a fitted effect of over 50% in size; further: potency means the concentration at half of the fitted maximal effect
# reportedConditions: PXR-Luc HepG2 viability, CellTiter-Fluor, 24 h; series mostly up to 92.4 µM
Records with an inconclusive call do not appear. Calls of active or inactive are those of the source. The call rests on the fitted dose curve; in most records, active means well fitted cell-killing curve with a large enough effect in the repeat runs; inconclusive means weak or mixed curves, or effect the other way; inactive means flat fitted curve, though single readings scatter.
parameter: Potency

Worked set:
smilesData	Potency
NC(=O)C1(N2CCCCC2)CCN(CCCN2c3ccccc3CCc3ccc(Cl)cc32)CC1	13.3 µM (active)
CC(C)(C)C(=O)OCOC(=O)[C@@H]1N2C(=O)[C@@H](NC(=O)[C@H](N)c3ccccc3)[C@H]2SC1(C)C	inactive
Cc1onc(-c2c(Cl)cccc2Cl)c1C(=O)N[C@@H]1C(=O)N2[C@@H]1SC(C)(C)[C@@H]2C(=O)O	inactive
c1ccc(CSCc2ccccc2)cc1	inactive
CC(=O)N1CCN(c2ccc(OC[C@H]3CO[C@](Cn4ccnc4)(c4ccc(Cl)cc4Cl)O3)cc2)CC1	27.3 µM (active)
Fc1ccc(C(c2ccc(F)cc2)N2CCN(C/C=C/c3ccccc3)CC2)cc1	29.8 µM (active)
CCCCCCOC(=O)c1ccc(O)cc1	inactive
C[C@H](CCC(=O)O)[C@H]1CC[C@H]2[C@@H]3CC[C@@H]4C[C@H](O)CC[C@]4(C)[C@H]3CC[C@]12C	inactive

If you can, please state the reported Potency value of CC[C@@]1(O)C(=O)OCc2c1cc1n(c2=O)Cc2c-1nc1ccccc1c2/C=N/OC(C)(C)C .
0.237 µM (active)

Entry CC(C)=CCOc1ccc(/C=C/C(=O)c2ccc(OCC=C(C)C)cc2OCC(=O)O)cc1 : reported Potency = ?
inactive

What measured Potency goes with O=C1c2ccccc2Cc2ccccc21 ?
inactive

---

# experimentalProtocol: qHTS assay to identify small molecule antagonists of the estrogen receptor alpha (ER-alpha) signaling pathway - cell viability counter screen (AID 743074);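 further: HEK293 cells carrying ER-alpha-UAS-bla reporter stimulated with 17beta-estradiol; nearly all actives have a fitted effect of over 45% in size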; further: potency means the concentration at half of the fitted maximal effect
# reportedConditions: ERalpha-bla HEK293 viability, CellTiter-Glo luminescence, 18 h; series mostly up to 69.4 µM
Results filed as inconclusive are left out. Calls of active or inactive are those of the source. Calls come from the whole dose curve.
parameter: Potency

The following compounds have reported results that may help.
compound	endpointValue
CCCC1O[C@@H]2C[C@H]3[C@@H]4CCC5=CC(=O)C=C[C@]5(C)[C@H]4[C@@H](O)C[C@]3(C)[C@]2(C(=O)CO)O1 (stereo partly specified)	inactive
CCCCCCC[N+](CC)(CC)CCCCc1ccc(Cl)cc1	8.11 µM (active)
CCCN(CCC)C(=O)C(CCC(=O)OCCCN1CCN(CCOC(=O)Cc2c(C)n(C(=O)c3ccc(Cl)cc3)c3ccc(OC)cc23)CC1)NC(=O)c1ccccc1 (stereo unspecified)	inactive
CC(C)(C)CC(C)(C)c1ccc(O)c(Cc2ccc(Cl)cc2Cl)c1	23.9 µM (active)
C1CCCC1	inactive

Next up:
Could you tell me which Potency is on file for O=C(OC[C@H]1O[C@@H](OC(=O)c2cc(O)c(O)c(OC(=O)c3cc(O)c(O)c(O)c3)c2)[C@H](OC(=O)c2cc(O)c(O)c(OC(=O)c3cc(O)c(O)c(O)c3)c2)[C@@H](OC(=O)c2cc(O)c(O)c(OC(=O)c3cc(O)c(O)c(O)c3)c2)[C@@H]1OC(=O)c1cc(O)c(O)c(OC(=O)c2cc(O)c(O)c(O)c2)c1)c1cc(O)c(O)c(OC(=O)c2cc(O)c(O)c(O)c2)c1 ?
6.74 µM (active)
